- method_notes: in vivo
- measurement_parameters: delivered sublingually or transmucosally
Provide the reported half-life of each item.

COc1ccc2c(=O)cc(-c3ccccc3)oc2c1 [7-methoxyflavone] yielded half-life of 8 to 12 h

Per the records, this compound ( O=c1cc(-c2ccccc2)oc2c1ccc1ccccc12 [7,8-benzoflavone, 2-phenyl-benzo(h)chromen-4-one] ) has half-life equal to 1 to 2 h

Origin of values: patent US20160361258A1
